System: S. aureus clinical isolates
Assay: microbe, parasite or virus in culture
Type: cell-based
Conditions: Staphylococcus aureus, MRSA / NRS 22 / USA600 / VISA, S. aureus IHMA 649389, NRS22, MRSA / VISA, USA600; read-out: MIC
REPORTED PROPERTY: MIC (µg/mL)

{"columns": ["COMPOUND", "REPORTED PROPERTY", "VALUE PREFIX", "ASSAY RESULT"],
 "data": [
  ["Cc1onc(-c2ccccc2)c1C(=O)N[C@@H]1C(=O)N2[C@@H]1SC(C)(C)[C@@H]2C(=O)O [Oxacillin]", "MIC", "=", 16],
  ["C[C@H]1COc2c(N3CCN(C)CC3)c(F)cc3c(=O)c(C(=O)O)cn1c23 [Levofloxacin]", "MIC", "=", 16],
  ["CC(=O)NC[C@H]1CN(c2ccc(N3CCOCC3)c(F)c2)C(=O)O1 [Linezolid]", "MIC", "=", 1],
  ["Cc1[nH]c(C(=O)Nc2nc3ccc(C(=O)O)cc3s2)c(Cl)c1Cl [ULD1]", "MIC", "=", 0.5],
  ["Cc1[nH]c(C(=O)Nc2nc3c(OCc4ccccc4)cc(C(=O)O)cc3s2)c(Cl)c1Cl [ULD2]", "MIC", "=", 0.5],
  ["CC[C@H]1OC(=O)[C@H](C)[C@@H](O[C@H]2C[C@@](C)(OC)[C@@H](O)[C@H](C)O2)[C@H](C)[C@@H](O[C@@H]2O[C@H](C)C[C@H](N(C)C)[C@H]2O)[C@](C)(O)C[C@@H](C)CN(C)[C@H](C)[C@@H](O)[C@]1(C)O [Azithromycin]", "MIC", ">", 32]
]}

----------
Measured MIC by item
Test system: S. aureus clinical isolates
Assay: microbe, parasite or virus in culture
Type: cell-based
Settings: Staphylococcus aureus, MRSA, S. aureus IHMA 1580300, MRSA / VSSA; read-out: MIC

{"columns": ["COMPOUND", "UNITS LABEL", "VALUE PREFIX", "MIC"],
 "data": [
  ["Cc1onc(-c2ccccc2)c1C(=O)N[C@@H]1C(=O)N2[C@@H]1SC(C)(C)[C@@H]2C(=O)O [Oxacillin]", "µg/mL", ">", 64],
  ["CC(=O)NC[C@H]1CN(c2ccc(N3CCOCC3)c(F)c2)C(=O)O1 [Linezolid]", "µg/mL", "=", 0.5],
  ["Cc1[nH]c(C(=O)Nc2nc3c(OCc4ccccc4)cc(C(=O)O)cc3s2)c(Cl)c1Cl [ULD2]", "µg/mL", "=", 0.12],
  ["Cc1[nH]c(C(=O)Nc2nc3ccc(C(=O)O)cc3s2)c(Cl)c1Cl [ULD1]", "µg/mL", "=", 0.5],
  ["C[C@H]1COc2c(N3CCN(C)CC3)c(F)cc3c(=O)c(C(=O)O)cn1c23 [Levofloxacin]", "µg/mL", "=", 16],
  ["CC[C@H]1OC(=O)[C@H](C)[C@@H](O[C@H]2C[C@@](C)(OC)[C@@H](O)[C@H](C)O2)[C@H](C)[C@@H](O[C@@H]2O[C@H](C)C[C@H](N(C)C)[C@H]2O)[C@](C)(O)C[C@@H](C)CN(C)[C@H](C)[C@@H](O)[C@]1(C)O [Azithromycin]", "µg/mL", "=", 0.5]
]}

----------
System: S. aureus clinical isolates
Assay: microbe, parasite or virus in culture
Assay type: cell-based
Conditions: Staphylococcus aureus, MRSA / USA800 / VRSA, S. aureus IHMA 672233, VRS3b, MRSA / VRSA, USA800; read-out: MIC
Quick reference for MIC among some compounds

{"columns": ["COMPOUND", "MIC"],
 "data": [
  ["Cc1[nH]c(C(=O)Nc2nc3ccc(C(=O)O)cc3s2)c(Cl)c1Cl [ULD1]", "0.25 µg/mL"],
  ["CC[C@H]1OC(=O)[C@H](C)[C@@H](O[C@H]2C[C@@](C)(OC)[C@@H](O)[C@H](C)O2)[C@H](C)[C@@H](O[C@@H]2O[C@H](C)C[C@H](N(C)C)[C@H]2O)[C@](C)(O)C[C@@H](C)CN(C)[C@H](C)[C@@H](O)[C@]1(C)O [Azithromycin]", "> 32 µg/mL"],
  ["Cc1onc(-c2ccccc2)c1C(=O)N[C@@H]1C(=O)N2[C@@H]1SC(C)(C)[C@@H]2C(=O)O [Oxacillin]", "> 64 µg/mL"]
]}

----------
Test system: S. aureus clinical isolates
Experiment: microbe, parasite or virus in culture
Type: cell-based
Details: Staphylococcus aureus, MSSA / NRS 52, S. aureus IHMA 1308252, NRS52, MSSA / VSSA* (*Expected VAN intermediate, confirmed VAN susceptible twice), test date 2018-11-07; read-out: MIC
Items are presented alongside their recorded MIC.
REPORTED PROPERTY: MIC (µg/mL)

{"columns": ["COMPOUND", "ASSAY RESULT"],
 "data": [
  ["Cc1[nH]c(C(=O)Nc2nc3c(OCc4ccccc4)cc(C(=O)O)cc3s2)c(Cl)c1Cl [ULD2]", 0.12],
  ["Cc1[nH]c(C(=O)Nc2nc3ccc(C(=O)O)cc3s2)c(Cl)c1Cl [ULD1]", 0.12],
  ["Cc1onc(-c2ccccc2)c1C(=O)N[C@@H]1C(=O)N2[C@@H]1SC(C)(C)[C@@H]2C(=O)O [Oxacillin]", 0.12],
  ["CC[C@H]1OC(=O)[C@H](C)[C@@H](O[C@H]2C[C@@](C)(OC)[C@@H](O)[C@H](C)O2)[C@H](C)[C@@H](O[C@@H]2O[C@H](C)C[C@H](N(C)C)[C@H]2O)[C@](C)(O)C[C@@H](C)CN(C)[C@H](C)[C@@H](O)[C@]1(C)O [Azithromycin]", 0.25],
  ["CC(=O)NC[C@H]1CN(c2ccc(N3CCOCC3)c(F)c2)C(=O)O1 [Linezolid]", 1],
  ["C[C@H]1COc2c(N3CCN(C)CC3)c(F)cc3c(=O)c(C(=O)O)cn1c23 [Levofloxacin]", 0.25]
]}

----------
System: S. aureus clinical isolates
Assay: microbe, parasite or virus in culture
Assay type: cell-based
Conditions: Staphylococcus aureus, MRSA, S. aureus IHMA 1583795, MRSA / VSSA; read-out: MIC
REPORTED PROPERTY: MIC (mg/L)

{"columns": ["MOL", "REPORTED PROPERTY", "VALUE PREFIX", "ASSAY RESULT"],
 "data": [
  ["CC(=O)NC[C@H]1CN(c2ccc(N3CCOCC3)c(F)c2)C(=O)O1", "MIC", "=", 1],
  ["Cc1[nH]c(C(=O)Nc2nc3c(OCc4ccccc4)cc(C(=O)O)cc3s2)c(Cl)c1Cl", "MIC", "=", 1],
  ["Cc1[nH]c(C(=O)Nc2nc3ccc(C(=O)O)cc3s2)c(Cl)c1Cl", "MIC", "=", 1],
  ["Cc1onc(-c2ccccc2)c1C(=O)N[C@@H]1C(=O)N2[C@@H]1SC(C)(C)[C@@H]2C(=O)O", "MIC", ">", 64],
  ["C[C@H]1COc2c(N3CCN(C)CC3)c(F)cc3c(=O)c(C(=O)O)cn1c23", "MIC", "=", 32],
  ["CC[C@H]1OC(=O)[C@H](C)[C@@H](O[C@H]2C[C@@](C)(OC)[C@@H](O)[C@H](C)O2)[C@H](C)[C@@H](O[C@@H]2O[C@H](C)C[C@H](N(C)C)[C@H]2O)[C@](C)(O)C[C@@H](C)CN(C)[C@H](C)[C@@H](O)[C@]1(C)O", "MIC", ">", 32]
]}

----------
System: S. aureus clinical isolates
Assay: microbe, parasite or virus in culture
Type: cell-based
Conditions: Staphylococcus aureus, MSSA, S. aureus IHMA 1577800, MSSA / VSSA; read-out: MIC
REPORTED PROPERTY: MIC (µg/mL)

{"columns": ["COMPOUND", "ASSAY RESULT"],
 "data": [
  ["Cc1[nH]c(C(=O)Nc2nc3ccc(C(=O)O)cc3s2)c(Cl)c1Cl [ULD1]", 0.5],
  ["CC(=O)NC[C@H]1CN(c2ccc(N3CCOCC3)c(F)c2)C(=O)O1 [Linezolid]", 4],
  ["CC[C@H]1OC(=O)[C@H](C)[C@@H](O[C@H]2C[C@@](C)(OC)[C@@H](O)[C@H](C)O2)[C@H](C)[C@@H](O[C@@H]2O[C@H](C)C[C@H](N(C)C)[C@H]2O)[C@](C)(O)C[C@@H](C)CN(C)[C@H](C)[C@@H](O)[C@]1(C)O [Azithromycin]", 1],
  ["Cc1[nH]c(C(=O)Nc2nc3c(OCc4ccccc4)cc(C(=O)O)cc3s2)c(Cl)c1Cl [ULD2]", 0.25],
  ["Cc1onc(-c2ccccc2)c1C(=O)N[C@@H]1C(=O)N2[C@@H]1SC(C)(C)[C@@H]2C(=O)O [Oxacillin]", 0.5],
  ["C[C@H]1COc2c(N3CCN(C)CC3)c(F)cc3c(=O)c(C(=O)O)cn1c23 [Levofloxacin]", 0.25]
]}

Attribution: paper PMC7561186
